Molecular target: T1, Cynomolgus SLC34A2 (Cynomolgus, UniProt A0A2K5UHY1 1-690)
T1 construct: whole, on cells; also called Cyno SLC34A2
T1 sequence: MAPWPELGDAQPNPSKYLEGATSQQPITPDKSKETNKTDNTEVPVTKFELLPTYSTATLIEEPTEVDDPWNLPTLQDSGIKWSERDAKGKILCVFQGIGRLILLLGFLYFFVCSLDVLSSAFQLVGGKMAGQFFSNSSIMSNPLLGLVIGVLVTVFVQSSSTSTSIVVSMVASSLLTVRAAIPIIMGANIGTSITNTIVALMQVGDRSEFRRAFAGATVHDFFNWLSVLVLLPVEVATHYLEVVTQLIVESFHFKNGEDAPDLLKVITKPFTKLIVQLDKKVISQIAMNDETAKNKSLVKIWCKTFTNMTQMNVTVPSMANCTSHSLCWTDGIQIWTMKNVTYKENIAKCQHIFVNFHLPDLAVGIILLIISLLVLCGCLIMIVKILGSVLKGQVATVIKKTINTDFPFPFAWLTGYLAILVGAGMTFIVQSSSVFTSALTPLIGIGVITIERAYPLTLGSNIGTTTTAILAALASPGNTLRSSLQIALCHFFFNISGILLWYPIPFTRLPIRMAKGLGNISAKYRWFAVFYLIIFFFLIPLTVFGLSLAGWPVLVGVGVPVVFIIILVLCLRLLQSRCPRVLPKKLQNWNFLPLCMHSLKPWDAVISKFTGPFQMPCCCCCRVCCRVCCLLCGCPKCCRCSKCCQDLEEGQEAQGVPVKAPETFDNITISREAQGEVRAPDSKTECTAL
Test: FACS, cells expressing Cynomolgus SLC34A2
PARAMETER: log10(EC50) (log10 of the value in nM)
A value of 2 here means EC50 of 100 in nM, since values are log10.

Solved entries (count: 3):
[[record]]
binder = "xi16E5D10 hIgG1 (antibody, V domains shown, chimeric, hIgG1) VH: QVQLQQPGAELVKPGASVMMSCKASGYTFSNHNLHWLKKTPGQGLDWIGAIYPGNGDTSYNQKFKGRATLTVDKSSNTAYMQFSSLTSEDSAVFYCARGKYGNGAMDYWGQGTAVTVSS VL: DIVMTQSHKFMSTSVGDRVSITCRASQDVGTAVVWYQQKLGQSPKLLFDWASSRHTGVPDRFTGSGSGTDFTLTITDVQSEDLADYFCQQYSRQPLTFGAGTKLELK"
endpoint_result = 0.58

[[record]]
binder = "xi84F2D10 hIgG1 (antibody, V domains shown, chimeric, hIgG1) VH: QVQLQQPGAVLVKPGASVKMSCKASGYTFTSYNLHWVKQTPGQGLEWIGAIYPGNGDTSYIQKFKGKATLTADKSSSTAYMQLSSLTSEDSAVYYCARGKYGNYEGFAYWGQGTLVTVSA VL: DILLTQSPAILSVSPGERVSISCRASQSIGTSIYWYQQRRNGSPRLLIKFASESISGIPSRFSGSGSGTDFTLSINSVESEDIADYYCQQNNRWPFTFGSGTKLEIK"
endpoint_result = 1.84

[[record]]
binder = "xi91C9F1 hIgG1 (antibody, V domains shown, chimeric, hIgG1) VH: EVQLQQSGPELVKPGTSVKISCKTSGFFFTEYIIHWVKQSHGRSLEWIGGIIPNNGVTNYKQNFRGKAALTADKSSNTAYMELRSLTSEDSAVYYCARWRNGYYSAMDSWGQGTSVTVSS VL: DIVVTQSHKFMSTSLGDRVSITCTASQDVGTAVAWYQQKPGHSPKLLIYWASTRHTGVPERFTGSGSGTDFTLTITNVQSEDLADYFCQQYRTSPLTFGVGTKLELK"
endpoint_result = 0.96


query: Returns the measured log10(EC50) for the input binder. Input: xi55E5B6D12 hIgG1 (antibody, V domains shown, chimeric, hIgG1) VH: QVQLQQSGAEVVNSGASVKMSCKASGYTFTTYNMHWVKQTPGQGLEWIGAIYPGNGDTSYNQRFKGKATFTADRSSGTAYMQLSSLPSEDSAVYYCARGGYANGALVDWGQGTLVTVSA VL: DILMTQSHKFMSTSVGDRVTITCKASQDVGTAVAWYQNKPGQSPKLLIFWTSTRHTGVPDRFTGSGSGTDFTLTISNVQSEDLADYFCQQYSRQPLTFGPGTKLEIK
result: 0.43

query: Returns the measured log10(EC50) for the input binder. Input: xi18G1H4 hIgG1 (antibody, V domains shown, chimeric, hIgG1) VH: QVQLQQPGAELVKPGASVRMSCKASAYTFTTYNLHWVKQTPGQGLEWIGAISPGNGVTSYNQKFRGKATLTADKSSSTAYMQLSSLTSEDSAVYYCARGYGYSVGAMDYWGQGTSVTVSS VL: DIQMTQTTSSLSASLGDRVNISCSASQGIGNFLNWYQQKPDGTVKLLIYYTSSLHSGVPPRFSGSGSGTDYSLTISNLEPEDIATYYCQQYHKLPLTFGAGTKLELK
result: 0.69
